Test system: CAKI-1 renal
Assay: NCI-60 one-dose screen, 48 h (100 = growth as untreated, 0 = no growth, -100 = all killed)
Settings: 10 µM
The panel holds about 83,000 compounds, 20% with a hit somewhere; the sample as a whole holds those more often.
Param label: returns Criterion met when growth < 70%, returns Criterion not met otherwise, including exact equality.

Example results:
# molecule, answer label
data = [
    ("O=C(CNS(=O)(=O)Cc1ccccc1)NNc1ccccc1", "Criterion met"),
    ("CCOC(=O)[C@]1(Br)CC[C@@]1(Br)C(=O)OCC", "Criterion not met"),
]

Task item: Below 70% on growth? Entry `NCc1c(O)ccc2ccccc12`
Reply: Criterion not met

Task item: Consider `N#CC(=C1C=CC(=NO)C=C1)c1ccccc1` . Does its growth lie strictly below 70%?
Reply: Criterion met

Task item: Strictly below 70% in growth? `O=C1c2ccccc2CCC1(Br)Br`
Reply: Criterion met

Task item: Consider `O=Nc1ccc(Nc2ccccc2)cc1` . Does its growth lie strictly below 70%?
Reply: Criterion met
